- Target or test system: human NK2R (Homo sapiens)
- Construct: expressed in transfected cells; host or cells: CHO (CHO-K1) cells, stably transfected; gift from Dr Shinya Oishi, Kyoto University
- Sequence (P21452 whole entry): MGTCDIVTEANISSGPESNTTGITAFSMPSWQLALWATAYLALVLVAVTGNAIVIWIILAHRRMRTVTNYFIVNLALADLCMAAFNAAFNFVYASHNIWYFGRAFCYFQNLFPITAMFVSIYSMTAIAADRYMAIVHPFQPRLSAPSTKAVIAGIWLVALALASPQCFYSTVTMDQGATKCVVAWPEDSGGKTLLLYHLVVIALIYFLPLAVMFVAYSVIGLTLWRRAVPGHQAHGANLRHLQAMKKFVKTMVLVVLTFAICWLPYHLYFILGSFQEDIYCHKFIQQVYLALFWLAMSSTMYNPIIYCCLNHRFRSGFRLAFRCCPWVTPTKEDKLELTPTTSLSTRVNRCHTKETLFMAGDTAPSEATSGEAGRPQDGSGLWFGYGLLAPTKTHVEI
- Assay comment: Calcium flux assay, CHO cells expressing human NK2R
- Type: cell-based
- Applied conditions: CHO-K1 cells expressing human NK2R; FLIPR; mean ± SEM of three independent experiments in triplicate; read-out: EC50 (peak calcium response)
No end group written: not given here.
Value type: EC50 (nM)
# output: bare number, implied unit nM

Requested field: EC50. Item: NTGDKFYGLM-NH2 [Sialokinin I] 0.288

Taken from paper PMC12537910.
